System: Human Gastric Cancer Cell Line (BGC)
Experimental details: Tumor cell proliferation assay (MTT), BGC
Format: cell-based
Condition context: secondary screening, 48 hours
Readout name: IC50 (µM)

# annotated cases, reported IC50 shown
• CCN(CC)CC(O)CNC(=O)c1c(C)[nH]c2c1CCC/C2=C1/C(=O)Nc2ccc(Cl)cc21 (centres unmarked) = 1.72
• Cc1[nH]c2c(c1C(=O)NCC(O)CN1CCCCC1)CCC/C2=C1/C(=O)Nc2ccc(F)cc21 (centres unmarked) = 7.95
• CCN(CC)CCNC(=O)c1c(C)[nH]c2c1CCC/C2=C1/C(=O)Nc2ccccc21 = 6.73

P. CCN(CC)CCNC(=O)c1c(C)[nH]c2c1CCC/C2=C1/C(=O)Nc2ccc(F)cc21
Q. Cc1[nH]c2c(c1C(=O)NCC(O)CN1CCN(C)CC1)CCC/C2=C1/C(=O)Nc2ccc(F)cc21 (centres unmarked)
q: API: POST /compare with P and Q ; response names the item with higher IC50. Answer by quoting the chosen item's label.
a: P

1. Cc1[nH]c2c(c1C(=O)NCC(O)CN1CCCCC1)CCC/C2=C1/C(=O)Nc2ccc(Cl)cc21 (centres unmarked)
2. Cc1[nH]c2c(c1C(=O)NCC(O)CN1CCCC1)CCC/C2=C1/C(=O)Nc2ccc(Cl)cc21 (centres unmarked)
3. Cc1[nH]c2c(c1C(=O)NCC(O)CN1CCCC1)CCC/C2=C1/C(=O)Nc2ccc(F)cc21 (centres unmarked)
q: Could you please order the items by IC50, going from the lowest number to the highest? Answer with the labels in sequence, matching the requested order.
a: 3, 2, 1

====

System: Human Pancreatic Carcinoma Cell Line (BXPC-3)
Experimental details: Tumor cell proliferation assay (MTT), BXPC-3
Type: cell-based
Condition context: concentration of 10^−5 mol/L, preliminary screening, 72 hours, read-out: Inhibition rate % BXPC-3
The compounds listed here are annotated with their inhibition at 10 µM.
Could you give me the number in %? Just the number is fine.

# annotated cases, reported inhibition at 10 µM shown
• Cc1[nH]c2c(c1C(=O)NCC(O)CN1CCOCC1)CCC/C2=C1/C(=O)Nc2ccc(F)cc21 (stereo not shown) = 60.7
• Cc1[nH]c2c(c1C(=O)NCC(O)CN1CCCC1)CCC/C2=C1/C(=O)Nc2ccccc21 (stereo not shown) = 98.7
• CCN(CC)CCNC(=O)c1c(C)[nH]c2c1CCC/C2=C1/C(=O)Nc2ccccc21 = 89.4

Next compound, please.
q: Sample Cc1ccc2c(c1)/C(=C1\CCCc3c1[nH]c(C)c3C(=O)NCC(O)CN(C)C1CCCCC1)C(=O)N2 (stereo not shown) — what was its inhibition at 10 µM?
a: 99

====

Tested on: Human Pancreatic Carcinoma Cells (PANC-1)
Experimental details: Tumor cell proliferation assay (MTT), PANC-1
Format: cell-based
Condition context: secondary screening, 48 hours
Readout name: IC50 (µM)

• Cc1[nH]c2c(c1C(=O)NCC(O)CN1CCN(C)CC1)CCC/C2=C1/C(=O)Nc2ccccc21 (stereo not drawn) = 3.4

1. Cc1ccc2c(c1)/C(=C1\CCCc3c1[nH]c(C)c3C(=O)NCC(O)CN(C)C1CCCCC1)C(=O)N2 (stereo not drawn)
2. Cc1[nH]c2c(c1C(=O)NCC(O)CN1CCCC1)CCC/C2=C1/C(=O)Nc2ccc(Cl)cc21 (stereo not drawn)
q: API: POST /compare with 1 and 2 ; response names the item with higher IC50. Answer by quoting the chosen item's label.
a: 1
(1: 3.99 µM, 2: 1.81 µM)

====

Target or system: c-Kit (Homo sapiens, UniProt P10721)
Construct: purchased Cell Signaling Technology CO
Sequence (P10721 26-976): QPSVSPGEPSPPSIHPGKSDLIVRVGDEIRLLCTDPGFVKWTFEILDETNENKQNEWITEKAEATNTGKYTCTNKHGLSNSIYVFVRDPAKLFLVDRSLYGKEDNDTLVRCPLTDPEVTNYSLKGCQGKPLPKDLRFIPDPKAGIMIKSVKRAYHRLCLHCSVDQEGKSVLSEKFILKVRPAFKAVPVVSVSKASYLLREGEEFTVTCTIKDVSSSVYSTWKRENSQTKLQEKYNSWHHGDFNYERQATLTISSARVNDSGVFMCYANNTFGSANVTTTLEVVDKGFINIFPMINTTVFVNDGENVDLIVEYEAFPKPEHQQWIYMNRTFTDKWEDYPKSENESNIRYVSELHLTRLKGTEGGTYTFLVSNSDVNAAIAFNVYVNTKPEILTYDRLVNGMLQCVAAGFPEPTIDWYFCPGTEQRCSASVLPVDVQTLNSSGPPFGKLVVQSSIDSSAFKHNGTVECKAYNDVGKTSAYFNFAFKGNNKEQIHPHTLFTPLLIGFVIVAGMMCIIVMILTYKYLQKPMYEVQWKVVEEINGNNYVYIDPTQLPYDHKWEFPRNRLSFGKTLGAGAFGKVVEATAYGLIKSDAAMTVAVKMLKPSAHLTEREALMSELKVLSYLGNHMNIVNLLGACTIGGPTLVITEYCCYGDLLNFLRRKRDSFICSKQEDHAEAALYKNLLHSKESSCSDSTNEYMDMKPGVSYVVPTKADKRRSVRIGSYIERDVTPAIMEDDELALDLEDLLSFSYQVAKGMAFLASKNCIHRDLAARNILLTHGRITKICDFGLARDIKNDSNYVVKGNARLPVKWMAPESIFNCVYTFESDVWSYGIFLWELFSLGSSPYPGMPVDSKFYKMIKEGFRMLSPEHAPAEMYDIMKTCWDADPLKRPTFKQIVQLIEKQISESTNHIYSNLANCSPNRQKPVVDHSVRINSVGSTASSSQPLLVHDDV
Experimental details: Protein kinase activity by ELISA in vitro, c-Kit
Format: biochemical
Condition context: concentration of 10^−7 mol/L; read-out: kinase inhibition ratio, c-Kit
Readout name: inhibition at 0.1 µM (%)

* CCN(CC)CC(O)CNC(=O)c1c(C)[nH]c2c1CCC/C2=C1/C(=O)Nc2ccccc21 (stereo not drawn) | 73
* CCN(CC)CCNC(=O)c1c(C)[nH]c2c1CCC/C2=C1/C(=O)Nc2ccccc21 | 67
* Cc1[nH]c2c(c1C(=O)NCC(O)CN1CCCC1)CCC/C2=C1/C(=O)Nc2ccccc21 (stereo not drawn) | 76
* Cc1[nH]c2c(c1C(=O)NCCO)CCC/C2=C1/C(=O)Nc2ccccc21 | 77
* Cc1[nH]c2c(c1C(=O)NCCCN(C)C)CCC/C2=C1/C(=O)Nc2ccc(Cl)cc21 | 74
* CCN(CC)CCNC(=O)c1c(C)[nH]c2c1CCC/C2=C1/C(=O)Nc2ccc(F)cc21 | 46
* Cc1[nH]c2c(c1C(=O)NCCN(C)C)CCC/C2=C1/C(=O)Nc2ccc(F)cc21 | 77
* CCN(CC)CCNC(=O)c1c(C)[nH]c2c1CCC/C2=C1/C(=O)Nc2ccc(Cl)cc21 | 43
* CCN(CC)CCNC(=O)c1c(C)[nH]c2c1CCC/C2=C1/C(=O)Nc2ccc(C)cc21 | 60

====

Tested on: Human Gastric Cancer Cell Line (BGC)
Experimental details: Tumor cell proliferation assay (MTT), BGC
Format: cell-based
Condition context: concentration of 10^−5 mol/L, preliminary screening, 72 hours, read-out: Inhibition rate % BGC
Excerpt: The assay used generally is the blue tetrazolium bromide (MTT) method. […] The amount of formazan can be detected by the microplate reader through the absorption value at 570 nm. […] The assay used generally is the blue tetrazolium bromide (MTT) method. […] Intracellular purple formazan salt crystals can be solved in DMSO and the absorption value at 570 nm is detected by the microplate reader, then the number of living cells can be detected indirectly. […]
Readout name: inhibition at 10 µM (%)
Could you give me the number in %? Just the number is fine.

* Cc1[nH]c2c(c1C(=O)NCC(O)CN1CCOCC1)CCC/C2=C1/C(=O)Nc2ccc(F)cc21 (stereo not shown) [I-68] | 55.4
* Cc1[nH]c2c(c1C(=O)N1CCOCC1)CCC/C2=C1/C(=O)Nc2ccc(F)cc21 [I-10] | 15.2

q: Sample Cc1[nH]c2c(c1C(=O)NCC(O)CN1CCCC1)CCC/C2=C1/C(=O)Nc2ccc(Cl)cc21 (stereo not shown) [I-72] — what was its inhibition at 10 µM?
a: 85.9

q: Sample Cc1[nH]c2c(c1C(=O)NCC(O)CN1CCOCC1)CCC/C2=C1/C(=O)Nc2ccccc21 (stereo not shown) [I-67] — what was its inhibition at 10 µM?
a: 67.6

====

System: Human Non-Small Cell Lung Cancer Cell Line (A549)
Experimental details: Tumor cell proliferation assay (MTT), A549
Format: cell-based
Condition context: secondary screening, 48 hours
Readout name: IC50 (nM)

# annotated cases, reported IC50 shown
• Cc1[nH]c2c(c1C(=O)NCC(O)CN1CCN(C)CC1)CCC/C2=C1/C(=O)Nc2ccc(F)cc21 (stereo not drawn) [I-77] = 7120
• Cc1[nH]c2c(c1C(=O)NCC(O)CN1CCCC1)CCC/C2=C1/C(=O)Nc2ccc(F)cc21 (stereo not drawn) [I-71] = 2350
• Cc1[nH]c2c(c1C(=O)NCC(O)CN1CCCC1)CCC/C2=C1/C(=O)Nc2ccc(Cl)cc21 (stereo not drawn) [I-72] = 3730
• Cc1[nH]c2c(c1C(=O)NCC(O)CN1CCCC1)CCC/C2=C1/C(=O)Nc2ccccc21 (stereo not drawn) [I-70] = 1030

P. Cc1ccc2c(c1)/C(=C1\CCCc3c1[nH]c(C)c3C(=O)NCC(O)CN(C)C1CCCCC1)C(=O)N2 (stereo not drawn) [I-79]
Q. Cc1[nH]c2c(c1C(=O)NCC(O)CN1CCOCC1)CCC/C2=C1/C(=O)Nc2ccc(F)cc21 (stereo not drawn) [I-68]
q: Please let me know which one, P or Q , has a lower measured IC50 value. Answer by quoting the chosen item's label.
a: P
(P: 2840 nM, Q: 5490 nM)

====

System: Human Colon Cancer Cell Line (HT-29)
Experimental details: Tumor cell proliferation assay (MTT), HT29
Format: cell-based
Condition context: secondary screening, 48 hours
Readout name: IC50 (nM)

# annotated cases, reported IC50 shown
* CCN(CC)CCNC(=O)c1c(C)[nH]c2c1CCC/C2=C1/C(=O)Nc2ccc(Cl)cc21 | 6480
* Cc1[nH]c2c(c1C(=O)NCC(O)CN1CCCC1)CCC/C2=C1/C(=O)Nc2ccc(F)cc21 (centres unmarked) | 790

A. Cc1[nH]c2c(c1C(=O)NCCN(C)C)CCC/C2=C1/C(=O)Nc2ccc(F)cc21
B. Cc1[nH]c2c(c1C(=O)NCC(O)CN1CCN(C)CC1)CCC/C2=C1/C(=O)Nc2ccccc21 (centres unmarked)
C. Cc1[nH]c2c(c1C(=O)NCC(O)CN1CCCCC1)CCC/C2=C1/C(=O)Nc2ccccc21 (centres unmarked)
D. Cc1[nH]c2c(c1C(=O)NCCCN(C)C)CCC/C2=C1/C(=O)Nc2ccc(Cl)cc21
q: Could you please order the items by IC50, going from the lowest number to the highest? Answer with the labels in sequence, matching the requested order.
a: C, B, D, A
